This collection of values is drawn from ChEMBL document CHEMBL2169837.

# assayed system: Vasopressin V2 receptor (Homo sapiens, UniProt P30518)
# Sequence (P30518 whole entry): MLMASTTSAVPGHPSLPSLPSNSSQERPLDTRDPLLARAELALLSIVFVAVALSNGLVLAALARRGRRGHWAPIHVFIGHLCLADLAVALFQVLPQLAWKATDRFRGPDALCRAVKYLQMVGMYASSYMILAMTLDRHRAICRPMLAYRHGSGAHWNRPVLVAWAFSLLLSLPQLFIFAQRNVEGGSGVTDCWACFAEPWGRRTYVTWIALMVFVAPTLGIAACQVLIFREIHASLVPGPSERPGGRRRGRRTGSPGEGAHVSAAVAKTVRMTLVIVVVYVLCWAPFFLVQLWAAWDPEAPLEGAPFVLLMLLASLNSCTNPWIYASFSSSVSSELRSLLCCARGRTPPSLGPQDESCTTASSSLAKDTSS
# experiment description: Agonist activity at human vasopressin V2 receptor expressed in CHO cells assessed as cAMP accumulation after 30 mins by TR-FRET based HTRF assay
# Assay type: functional, cell-based
The source made the active and inactive calls. The rule behind the calls is not given here.

compound: CCN(CC)c1ccc2c(-c3ccc(S(=O)(=O)NCCOCCOCCOCCn4cc(CNC(=O)CCC(=O)NC5CCCN(C(=O)c6ccc(NC(=O)c7ccccc7-c7ccccc7)cc6)c6ccccc65)nn4)cc3S(=O)(=O)[O-])c3ccc(=[N+](CC)CC)cc-3oc2c1 (configuration not stated)
assayed system: Vasopressin V2 receptor (Homo sapiens, UniProt P30518)
Activity: inactive
--
compound: CCN(CC)c1ccc2c(-c3ccc(S(=O)(=O)NCCCCC(=O)NC4CCCN(C(=O)c5ccc(NC(=O)c6ccccc6-c6ccccc6)cc5)c5ccccc54)cc3S(=O)(=O)[O-])c3ccc(=[N+](CC)CC)cc-3oc2c1 (configuration not stated)
assayed system: Vasopressin V2 receptor (Homo sapiens, UniProt P30518)
Activity: inactive

====

pKi: −log10 of the molar value.
Target or system Vasopressin V2 receptor (Homo sapiens, UniProt P30518); recorded quantity pKi.

molecule: CCN(CC)c1ccc2c(-c3ccc(S(=O)(=O)N4CCN(CCC(=O)NC5CCCN(C(=O)c6ccc(NC(=O)c7ccccc7-c7ccccc7)cc6)c6ccccc65)CC4)cc3S(=O)(=O)[O-])c3ccc(=[N+](CC)CC)cc-3oc2c1 (stereo not given)
pKi: 7.90
//
molecule: CCN1/C(=C/C=C/C=C/C2=[N+](CC)c3ccc(S(=O)(=O)[O-])cc3C2(C)C)C(C)(CCCC(=O)NCCn2cc(CNC(=O)CCC(=O)NC3CCCN(C(=O)c4ccc(NC(=O)c5ccccc5-c5ccccc5)cc4)c4ccccc43)nn2)c2cc(S(=O)(=O)O)ccc21 (stereo not given)
pKi: 8.24
//
molecule: CCN(CC)c1ccc2c(-c3ccc(S(=O)(=O)[O-])cc3S(=O)(=O)NCCOCCOCCOCCn3cc(CNC(=O)CCC(=O)NC4CCCN(C(=O)c5ccc(NC(=O)c6ccccc6-c6ccccc6)cc5)c5ccccc54)nn3)c3ccc(=[N+](CC)CC)cc-3oc2c1 (stereo not given)
pKi: 7.85
//
molecule: CCN(CC)c1ccc2c(-c3ccc(S(=O)(=O)NC4CCCN(C(=O)c5ccc(NC(=O)c6ccccc6-c6ccccc6)cc5)c5ccccc54)cc3S(=O)(=O)[O-])c3ccc(=[N+](CC)CC)cc-3oc2c1 (stereo not given)
pKi: 7.60
//
molecule: Cc1ccccc1C(=O)Nc1ccc(C(=O)N2CCCCc3ccccc32)cc1
pKi: 8.57

====

# assayed system: Vasopressin V2 receptor (Homo sapiens)
# experiment description: Antagonist activity at human vasopressin V2 receptor expressed in CHO cells assessed as inhibition of AVP-induced cAMP accumulation after 30 mins by TR-FRET based HTRF assay
# Assay type: functional, cell-based
recorded endpoint: log10 Kb (log10 of the value in nM)

compound: CCN(CC)c1ccc2c(-c3ccc(S(=O)(=O)NCCOCCOCCOCCC(=O)NC4CCCN(C(=O)c5ccc(NC(=O)c6ccccc6-c6ccccc6)cc5)c5ccccc54)cc3S(=O)(=O)[O-])c3ccc(=[N+](CC)CC)cc-3oc2c1 (configuration not stated)
experimental result: 0.95
//
compound: CCN(CC)c1ccc2c(-c3ccc(S(=O)(=O)NCCOCCOCCOCCn4cc(CNC(=O)CCC(=O)NC5CCCN(C(=O)c6ccc(NC(=O)c7ccccc7C)cc6)c6ccccc65)nn4)cc3S(=O)(=O)[O-])c3ccc(=[N+](CC)CC)cc-3oc2c1 (configuration not stated)
experimental result: 1.22
//
compound: CCN1/C(=C/C=C/C=C/C2=[N+](CC)c3ccc(S(=O)(=O)[O-])cc3C2(C)C)C(C)(CCCC(=O)NCCOCCOCCOCCOCCOCCOCCn2cc(CNC(=O)CCC(=O)NC3CCCN(C(=O)c4ccc(NC(=O)c5ccccc5-c5ccccc5)cc4)c4ccccc43)nn2)c2cc(S(=O)(=O)O)ccc21 (configuration not stated)
experimental result: -0.27
//
compound: CCN(CC)c1ccc2c(-c3ccc(S(=O)(=O)NCCCCC(=O)NC4CCCN(C(=O)c5ccc(NC(=O)c6ccccc6-c6ccccc6)cc5)c5ccccc54)cc3S(=O)(=O)[O-])c3ccc(=[N+](CC)CC)cc-3oc2c1 (configuration not stated)
experimental result: -0.18
//
compound: CCN(CC)c1ccc2c(-c3ccc(S(=O)(=O)[O-])cc3S(=O)(=O)NCCOCCOCCOCCn3cc(CNC(=O)CCC(=O)NC4CCCN(C(=O)c5ccc(NC(=O)c6ccccc6-c6ccccc6)cc5)c5ccccc54)nn3)c3ccc(=[N+](CC)CC)cc-3oc2c1 (configuration not stated)
experimental result: 0.33
//
compound: CCN1/C(=C/C=C/C=C/C2=[N+](CC)c3ccc(S(=O)(=O)[O-])cc3C2(C)C)C(C)(CCCC(=O)NCCn2cc(CNC(=O)CCC(=O)NC3CCCN(C(=O)c4ccc(NC(=O)c5ccccc5-c5ccccc5)cc4)c4ccccc43)nn2)c2cc(S(=O)(=O)O)ccc21 (configuration not stated)
experimental result: -1.00
//
compound: CCN(CC)c1ccc2c(-c3ccc(S(=O)(=O)NCCOCCOCCOCCn4cc(CNC(=O)CCC(=O)NC5CCCN(C(=O)c6ccc(NC(=O)c7ccccc7-c7ccccc7)cc6)c6ccccc65)nn4)cc3S(=O)(=O)[O-])c3ccc(=[N+](CC)CC)cc-3oc2c1 (configuration not stated)
experimental result: 0.29
